- Assayed System: Voltage-gated potassium channel subunit beta-2 (Rattus norvegicus)
- Method: inhibitors of rat Kvbeta2 reductase activity – biochemical, NADPH fluorescence, primary screen (AID 622);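 also: slope of raw intensity against log time taken from 70 to 1610 s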
- Condition Set: recombinant KvBeta, 4-cyanobenzaldehyde reduction, at 10 µM, active compounds read high
Calls of active or inactive are those of the source.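 The calls were made as follows: active = fluorescence slope higher than the sample average by over 3 SD (cut at about -0.22 in these data, passing the limit was not always enough); inactive = the rest.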 Where a SMILES comes first, the peptide text is derived from it. The star is where a group is joined. Boc = CC(C)(C)OC(=O)*
Measurement Label: fluorescence slope

Q: Dear colleague, I am looking for the recorded fluorescence slope of the following molecule: CC(C)NC(=O)c1ccccc1NC(=O)c1ccccc1N(C)S(C)(=O)=O
Ans: -0.456 (inactive)

Q: Can you check CCOC(=O)N1CCC(N(C(=O)Nc2ccc(Cl)c(Cl)c2)C(C)CC)CC1 (configuration not stated) next?
Ans: -0.489 (inactive)

Q: Then this molecule: COC(=O)CN1C(=O)C2(C(C#N)=C(N)Oc3c2c(C)nn3-c2ccccc2)c2ccccc21 (configuration not stated)
Ans: -0.475 (inactive)

Q: // next record CCN(C(=O)CN1CCN(c2ccccc2OC)CC1)c1c(N)n(Cc2ccccc2)c(=O)[nH]c1=O
Ans: -0.424 (inactive)

Q: Can you handle COc1cccc(/C(O)=C2/C(=O)C(=O)N(CCN3CCOCC3)C2c2cccnc2)c1 (configuration not stated) next?
Ans: -0.576 (inactive)

Q: Do the same for O=C(OCC(=O)c1c[nH]c2ccccc12)C1=COCCO1 please
Ans: -0.271 (inactive)

Q: Next entry: Cc1cc(C)cc(NC(=O)N2CCC(c3nc4ccccc4o3)CC2)c1
Ans: -0.494 (inactive)

Q: Here is the next molecule: CCOC(=O)Nc1cc(OCC)c(NC(=O)C2CC2)cc1OCC
Ans: -0.439 (inactive)

Q: # repeat for CC(C)CC(NC(=O)OC(C)(C)C)C(=O)NC(C(=O)NC(C)C(N)=O)C(C)C (stereo not drawn) (Boc-Leu-Val-Ala-NH2; configuration not given here)
Ans: -0.573 (inactive)

Q: Repeat for the following molecule: O=C(Cn1nc(-c2ccc(Cl)cc2)ccc1=O)NCCCN1CCN(Cc2ccccc2)CC1
Ans: -0.585 (inactive)

Q: Moving on to the next molecule: COc1cccc2cc(C(=O)n3ccc(C)n3)c(=O)oc12
Ans: -0.409 (inactive)

Q: Follow-up item: O=C1CCC(=O)N1OCCCCOc1ccccc1
Ans: -0.421 (inactive)

Q: Record: O=C(C1CC1)N(Cc1ccco1)c1nc(-c2ccccc2)cs1
Ans: -0.445 (inactive)

Q: How about CC(C(=O)NCc1cccnc1)N1C(=O)c2ccccc2C1=O (configuration not stated) ?
Ans: -0.607 (inactive)

Q: Then what about the molecule Cc1nc2sc(C(c3cccc(F)c3)N3CCN(C(=O)c4ccco4)CC3)c(O)n2n1 (configuration not stated) ?
Ans: -0.306 (inactive)

Q: Cool, now COc1ccc(OC)c(C2=NOC(C(=O)NCCN3CCOCC3)C2)c1 (configuration not stated)
Ans: -0.62 (inactive)

Q: Another: O=C(CCCn1c(=S)[nH]c2ccccc2c1=O)N1CCCCC1
Ans: -0.451 (inactive)

Q: Now consider Cc1ccc(C)c(C(=O)NC2CC(C)(C)NC(C)(C)C2)c1 .
Ans: -0.578 (inactive)

Q: Request: COc1cc(OC)cc(-c2nc3nc(C)c(CCC(=O)O)c(C)n3n2)c1
Ans: -0.522 (inactive)

Q: Follow-up entry: C=CCC(NCc1ccco1)c1ccc(OC)cc1OC (configuration not stated)
Ans: -0.597 (inactive)

Q: Now consider CCn1c(=N)n(CC(O)COc2cccc(C)c2)c2ccccc21 (configuration not stated) and answer again.
Ans: -0.517 (inactive)

Q: Can you handle COc1ccc(C2C(C(C)=O)=C(C)N=c3s/c(=C\c4ccc5c(c4)OCO5)c(=O)n32)c(OC)c1 (configuration not stated) next?
Ans: -0.568 (inactive)

Q: Subsequent entry: CCCn1c(=O)c2ccccc2n2c(SCc3cc(=O)n4ccsc4n3)nnc12
Ans: -0.479 (inactive)

Q: Thanks! And CC(=O)SCC(=O)N=c1sc2cc(F)ccc2n1C ?
Ans: -0.493 (inactive)

Q: Repeat with CCC(=O)/C=C1\Sc2ccc(OC)cc2N1CCO
Ans: -0.577 (inactive)

Q: Now consider Cc1nn(-c2ccc(F)cc2)c2nc(N)c(C#N)c(-c3cccs3)c12 and answer again.
Ans: -0.437 (inactive)

Q: Also Cc1cccc(NC(=O)c2cc3n(n2)C(C(F)(F)F)CC(c2ccc4c(c2)OCO4)N3)c1 (configuration not stated) ?
Ans: -0.546 (inactive)

Q: Try O=C(O)CSc1ccc2ccccc2n1 next.
Ans: -0.525 (inactive)

Q: Continue with COC(=O)Cn1cc(C(=O)c2cccs2)c2ccccc21
Ans: -0.554 (inactive)

Q: Follow-up item: O=C(Cn1nnc(-c2ccncc2)n1)Nc1ccc2c(c1)CCC2
Ans: -0.465 (inactive)

Q: O=C1NCCCc2c1no[n+]2[O-] ?
Ans: -0.584 (inactive)

Q: Also, Cc1ccc(C2C(C#N)=C(N)Oc3cc4c(cc32)OCO4)cc1 (configuration not stated) please.
Ans: -0.541 (inactive)
